Source of measurements: the supplement of paper PMC9938120

Listed molecules paired with reported drug sensitivity score
System: FMOC25_1 (patient-derived low-grade serous ovarian cancer cells)
assay-overview: drug sensitivity score (DSS3, normalised partial AUC of % inhibition dose-response) (DSS (score)); higher = more sensitive (stronger inhibition of viability); extreme values may be limits of the assay
settings: 72 h; library: FO4B; assay format: 2D, 384-well, CellTiter-Glo
readout-kind: drug sensitivity score

C[C@@H]1C=C2C(=O)O[C@@H]3CC[C@H](C1)[C@]23O :: 0
CCn1c(=O)c(-c2ccc(Cl)cc2Cl)cc2cnc(Nc3ccc(N4CCNCC4)c(F)c3)nc21 :: 3.2
CC(C)C[C@H](NC(=O)[C@@H](COC(C)(C)C)NC(=O)[C@H](Cc1ccc(O)cc1)NC(=O)[C@H](CO)NC(=O)[C@H](Cc1c[nH]c2ccccc12)NC(=O)[C@H](Cc1cnc[nH]1)NC(=O)[C@@H]1CCC(=O)N1)C(=O)N[C@@H](CCCNC(=N)N)C(=O)N1CCC[C@H]1C(=O)NNC(N)=O :: 0
O=C(O)CCCc1ccc(N(CCCl)CCCl)cc1 :: 0
CNc1nc(Nc2cn(C(C)(C)C#N)nc2C)ncc1C(F)(F)F :: 0
Cc1ccc(Nc2nccc(N(C)c3ccc4c(C)n(C)nc4c3)n2)cc1S(N)(=O)=O :: 1.1
O=C(/C=C/c1cccc(S(=O)(=O)Nc2ccccc2)c1)NO :: 10.8

* * *

Test system: FMOC06 (patient-derived mucinous ovarian cancer cells)
assay-overview: drug sensitivity score (DSS3, normalised partial AUC of % inhibition dose-response) (DSS (score)); higher = more sensitive (stronger inhibition of viability); extreme values may be limits of the assay
settings: 72 h; library: FO5A; assay format: 2D, 384-well, CellTiter-Glo
Listed compounds paired with reported drug sensitivity score
readout-kind: drug sensitivity score

CCc1cnn2c(NCc3ccc[n+]([O-])c3)cc(N3CCCC[C@H]3CCO)nc12 :: 20.2
Cc1cc(Nc2ncc(Cl)c(Nc3ccccc3S(=O)(=O)C(C)C)n2)c(OC(C)C)cc1C1CCNCC1 :: 3.7
CCS(=O)(=O)N1CCN(c2ccc(Nc3ncc(C(N)=O)c(NC4CC4)n3)cc2)CC1 :: 0
C[C@@H](Oc1cc(-c2cnn(C3CCNCC3)c2)cnc1N)c1c(Cl)ccc(F)c1Cl :: 0
C[C@@H]1CN(CC(=O)Nc2ccc3c(c2)Cc2cccc(-c4cc(=O)cc(N5CCOCC5)o4)c2S3)C[C@H](C)O1 :: 0.6
CC(=O)N(O)CCCCCNC(=O)CCC(=O)N(O)CCCCCNC(=O)CCC(=O)N(O)CCCCCN :: 1.4
Nc1nc(OCc2cc(Br)cs2)c2[nH]cnc2n1 :: 0
CC(C)(C)c1cc(NC(=O)Nc2ccc(-c3cn4c(n3)sc3cc(OCCN5CCOCC5)ccc34)cc2)no1 :: 0.3
O=C(Nc1cccnc1)N1CCC(Cc2cccc(Oc3ccc(C(F)(F)F)cn3)c2)CC1 :: 0.1
CC[C@H](CO)Nc1nc(NCc2ccccc2)c2ncn(C(C)C)c2n1 :: 0.1
COc1cc2c(Oc3ccc4[nH]c(C)cc4c3F)ncnc2cc1OCCCN1CCCC1 :: 0.5
COc1cc(OC2CCN(C)CC2)ccc1Nc1ncc2c(n1)n(C1CCCC1)c(=O)n2C :: 2.9
CC(C)(C)C[C@@H]1N[C@@H](C(=O)N[C@H]2CC[C@H](O)CC2)[C@H](c2cccc(Cl)c2F)[C@]12C(=O)Nc1cc(Cl)ccc12 :: 3.3
CCc1cncnc1N1CCN(Cc2nc3ccc(C(F)(F)F)cc3[nH]2)CC1 :: 0.5
CC(C)C(=O)Nc1ccc([N+](=O)[O-])c(C(F)(F)F)c1 [Flutamide] :: 0
COc1cccc2c1C(=O)c1c(O)c3c(c(O)c1C2=O)C[C@@](O)(/C(CO)=N/NC(=O)CCCCCN1C(=O)C=CC1=O)C[C@@H]3O[C@H]1C[C@H](N)[C@H](O)[C@H](C)O1 :: 4.4

* * *

Tested on: FMOC24 (patient-derived high-grade serous ovarian cancer cells)
assay-overview: drug sensitivity score (DSS3, normalised partial AUC of % inhibition dose-response) (DSS (score)); higher = more sensitive (stronger inhibition of viability); extreme values may be limits of the assay
settings: 72 h; library: FO5A; assay format: 2D, 384-well, CellTiter-Glo
readout-kind: drug sensitivity score

COc1cc(N2CCN(C)CC2)ccc1Nc1nccc(-c2cn(C)c3cnccc23)n1 [AZ191] :: 6.15
CCN(CC)Cc1ccc2cc(COC(=O)Nc3ccc(C(=O)NO)cc3)ccc2c1 [Givinostat] :: 5.45
O=C1NC(=O)[C@@H](c2cn3c4c(cccc24)CCC3)[C@@H]1c1c[nH]c2ccccc12 [Tivantinib] :: 0.65
Cc1nc(=O)c2cc(CN(C)c3ccc(C(=O)N[C@@H](CCC(=O)O)C(=O)O)s3)ccc2[nH]1 [Raltitrexed] :: 0.05
COc1cccc2c1C(=O)c1c(O)c3c(c(O)c1C2=O)C[C@@](O)(C(=O)CO)C[C@@H]3O[C@H]1C[C@H](N)[C@H](O)[C@H](C)O1 [Doxorubicin] :: 5.65
Cc1sc2c(c1C)C(c1ccc(Cl)cc1)=N[C@@H](CC(=O)Nc1ccc(O)cc1)c1nnc(C)n1-2 [Birabresib] :: 7.65
O=C(O)c1ccc(CN2CCC(CN[C@@H]3C[C@H]3c3ccccc3)CC2)cc1 :: 0.9
O=C(Nc1cccnc1)N1CCC(Cc2cccc(Oc3ccc(C(F)(F)F)cn3)c2)CC1 [PF-3845] :: 0.4
Cn1cc(CNCC2CCN(c3ncc(C(=O)NO)cn3)CC2)c2ccccc21 [Quisinostat] :: 13.6
O=C(CCCCCCC(=O)Nc1ccc([C@H]2O[C@@H](CSc3nc(-c4ccccc4)c(-c4ccccc4)o3)C[C@@H](c3ccc(CO)cc3)O2)cc1)NO [Tubacin] :: 0.25
Cn1c(Nc2ccc(C(F)(F)F)cc2)nc2cc(Oc3ccnc(-c4ncc(C(F)(F)F)[nH]4)c3)ccc21 [NVP-RAF265] :: 2
O=C1CCC(N2C(=O)c3ccccc3C2=O)C(=O)N1 (stereo not given) [Thalidomide] :: 0
CO[C@@H](C(=O)N1Cc2[nH]nc(NC(=O)c3ccc(N4CCN(C)CC4)cc3)c2C1)c1ccccc1 [Danusertib] :: 4.3
C[C@H](Nc1ncnc2[nH]cnc12)c1cc2ccc(F)cc2nc1-c1ccccn1 [AMG319] :: 0.7
CCC1=C[C@@H]2CN(C1)Cc1c([nH]c3ccccc13)[C@@](C(=O)OC)(c1cc3c(cc1OC)N(C)[C@H]1[C@@](O)(C(=O)OC)[C@H](OC(C)=O)[C@]4(CC)C=CCN5CC[C@]31[C@@H]54)C2 [Vinorelbine] :: 6.6

* * *

System: FMOC02_2 (patient-derived low-grade serous ovarian cancer cells)
assay-overview: drug sensitivity score (DSS3, normalised partial AUC of % inhibition dose-response) (DSS (score)); higher = more sensitive (stronger inhibition of viability); extreme values may be limits of the assay
settings: 72 h; library: FO5A; assay format: 2D, 384-well, CellTiter-Glo
Listed molecules paired with reported drug sensitivity score
readout-kind: drug sensitivity score

O=C1CCc2c(Oc3ccc4c(c3)[C@@H]3[C@H](O4)[C@H]3c3nc4cc(C(F)(F)F)ccc4[nH]3)ccnc2N1 :: 7.4
C[C@@H]1CN(C(=O)c2ccc(NC(=O)c3cc(O[C@H](C)c4c(Cl)ccc(F)c4Cl)c(N)nn3)cc2)C[C@H](C)N1 :: 0.4
CN1CC[C@@H](NC(=O)Nc2ccc(C#N)cc2)C[C@@H]1c1nc2ccccc2[nH]1 :: 0.4
COc1cc2nccc(Oc3ccc(NC(=O)Nc4cc(C)on4)c(Cl)c3)c2cc1OC :: 3

* * *

Tested on: FMOC24
assay-overview: drug sensitivity score (DSS3, normalised partial AUC of % inhibition dose-response) (DSS (score)); higher = more sensitive (stronger inhibition of viability); extreme values may be limits of the assay
settings: 72 h; library: FO5A; assay format: 2D, 384-well, CellTiter-Glo
readout-kind: drug sensitivity score

COc1ccc(C[C@H](NC(=O)[C@H](C)NC(=O)CN2CCOCC2)C(=O)N[C@@H](Cc2ccccc2)C(=O)C2(C)CO2)cc1 (stereo in doubt) :: 20.9
COc1cc2c(cc1OCCCN1CCCC1)N=C(N)C21CCC1 :: 7.2
O=C(O)c1ccc2c(c1)nc(Nc1cccc(Cl)c1)c1ccncc12 :: 2.55
CCCCCCCCc1ccc(CCC(N)(CO)CO)cc1 :: 10.8

* * *

Test system: FMOC02_2
assay-overview: drug sensitivity score (DSS3, normalised partial AUC of % inhibition dose-response) (DSS (score)); higher = more sensitive (stronger inhibition of viability); extreme values may be limits of the assay
settings: 72 h; library: FO5A; assay format: 2D, 384-well, CellTiter-Glo
readout-kind: drug sensitivity score

CCn1c(-c2nonc2N)nc2c(C#CC(C)(C)O)ncc(OC[C@H]3CCCNC3)c21 :: 10.3
COc1cc2ncnc(Nc3cccc(Cl)c3F)c2cc1OC(=O)N1CCN(C)C[C@H]1C :: 5.4
CC1=C(/C=C/C(C)=C/C=C/C(C)=C/C(=O)O)C(C)(C)CCC1 :: 0
Cc1nn(C)c(COc2ccc(N3CCN(S(=O)(=O)N(C)C)CC3)cc2)c1-c1cccc2c(CCCOc3cccc4ccccc34)c(C(=O)O)n(CCN3CCOCC3)c12 :: 6
COc1cc2c(Oc3ccc(NC(=O)C4(C(=O)Nc5ccc(F)cc5)CC4)cc3F)ccnc2cc1OCCCN1CCOCC1 :: 1.9
O=C(O)c1ccc(O)c2ncccc12 :: 0.2
Nc1cccc2c1C(=O)N(C1CCC(=O)NC1=O)C2=O (stereo not given) [Pomalidomide] :: 0
COc1cc([C@@H]2c3cc4c(cc3[C@@H](O[C@@H]3O[C@@H]5CO[C@@H](c6cccs6)O[C@H]5[C@H](O)[C@H]3O)[C@H]3COC(=O)[C@H]23)OCO4)cc(OC)c1O [Teniposide] :: 0
Cc1ccc(NC(=O)c2ccc(CN3CC[C@H](N(C)C)C3)c(C(F)(F)F)c2)cc1Nc1nccc(-c2cncnc2)n1 :: 0
CS(=O)(=O)CCNCc1ccc(-c2ccc3ncnc(Nc4ccc(OCc5cccc(F)c5)c(Cl)c4)c3c2)o1 :: 6.9
C[C@H]1C[C@@H](n2c(Nc3ccc(OC(F)(F)F)cc3)nc3cc(CCC(=O)O)ccc32)CC(C)(C)C1 :: 0
O=C(Nc1ccc2[nH]nc(-c3ccncc3)c2c1)[C@@H]1CCN(CC(=O)N2CCN(c3ccc(-c4ncccn4)cc3)CC2)C1 :: 14.3
CCN(CC)CCNC(=O)c1c(C)[nH]c(/C=C2\C(=O)Nc3ccc(F)cc32)c1C :: 0.9
CC(=O)OC[C@H]1O[C@@H]([S-])[C@H](OC(C)=O)[C@@H](OC(C)=O)[C@@H]1OC(C)=O.CCP(CC)CC.[Au+] :: 0
Cc1c(Cn2c(C)nc3c(C(=O)O)cc(N4CCOCC4)cc32)cccc1C(F)(F)F :: 6.3
C[C@@H]1CN(Cc2ccc(F)cc2)[C@@H](C)CN1C(=O)c1cc2c(C(=O)C(=O)N(C)C)cn(C)c2cc1Cl :: 0
C[C@@H](Oc1cc(-c2cnn(C3CCNCC3)c2)cnc1N)c1c(Cl)ccc(F)c1Cl :: 0.1
Clc1ccc(Nc2nnc(Cc3ccncc3)c3ccccc23)cc1 :: 0.9
CN(C)C1CCN(C(=O)c2ccc(NC(=O)Nc3ccc(-c4nc(N5CCOCC5)nc(N5CCOCC5)n4)cc3)cc2)CC1 :: 8.2
COc1ccc(-c2ccc3ncc4c(c3c2)n(-c2ccc(N3CCNCC3)c(C(F)(F)F)c2)c(=O)n4C)cn1 :: 24.7
O=C(O)c1ccc(-c2c[nH]c3ncc(-c4ccccc4)cc23)cc1C1CCCC1 :: 0
Cc1[nH]nc(C(F)(F)F)c1Cc1sc2c(c1C(=O)N1C[C@](C)(O)CO1)c(=O)n(C)c(=O)n2C(C)C :: 0
O=C(Nc1cccc(Nc2ncc(Br)c(NCCc3cnc[nH]3)n2)c1)N1CCCC1 :: 5
CN1CCc2c(c3ccccc3n2Cc2ccc(C(=O)NO)cc2)C1 :: 1.4
C=CC(=O)Nc1cc2c(Nc3ccc(F)c(Cl)c3)ncnc2cc1OCCCN1CCOCC1 :: 21.8
C=C(c1ccc(C(=O)O)cc1)c1cc2c(cc1C)C(C)(C)CCC2(C)C :: 6
N.N.[Cl][Pt][Cl] [Cisplatin] :: 9.2
COc1cccc2c1C(=O)c1c(O)c3c(c(O)c1C2=O)C[C@@](O)(C(C)=O)C[C@@H]3O[C@H]1C[C@H](N)[C@H](O)[C@H](C)O1 :: 6.7
CC(C)[C@@H](CS(=O)(=O)C(C)C)N1C(=O)[C@@](C)(CC(=O)O)C[C@H](c2cccc(Cl)c2)[C@H]1c1ccc(Cl)cc1 :: 14.9
CO[C@H]1C(=O)[C@]2(C)[C@@H](OC)C[C@H]3OC[C@@]3(OC(C)=O)[C@H]2[C@H](OC(=O)c2ccccc2)[C@]2(O)C[C@H](OC(=O)[C@H](O)[C@@H](NC(=O)OC(C)(C)C)c3ccccc3)C(C)=C1C2(C)C :: 12.6
